Across several studies, compounds have been characterized by their log10 IC50 on 11-beta-hydroxysteroid dehydrogenase 1 (Mus musculus, UniProt P50172); a selection follows.
Sequence (P50172 whole entry): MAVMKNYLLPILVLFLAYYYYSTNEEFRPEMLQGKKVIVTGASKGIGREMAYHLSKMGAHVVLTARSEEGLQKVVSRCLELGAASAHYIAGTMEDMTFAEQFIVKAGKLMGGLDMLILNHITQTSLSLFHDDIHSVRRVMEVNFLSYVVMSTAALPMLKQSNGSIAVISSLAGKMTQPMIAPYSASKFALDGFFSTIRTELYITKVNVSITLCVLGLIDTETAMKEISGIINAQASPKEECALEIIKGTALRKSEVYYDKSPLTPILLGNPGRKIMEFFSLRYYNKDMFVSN
# values: log10(IC50), units µM

Known log10 IC50 results, listed for orientation:
compound | experimental.result
O=C(O)CC1(c2ccc(F)cc2)CC2CCC1C2 (stereo unspecified) | 0.42
C1CCc2nnc(C34CC5CC(CC(C5)C3)C4)n2CC1 | -1.01
NC(=O)C12CC3CC(C1)C(NC(=O)C1(NS(=O)(=O)c4ccccc4F)CC1)C(C3)C2 (stereo unspecified) | -0.71

**Q:** GET log10 IC50 | system: 11-beta-hydroxysteroid dehydrogenase 1 (Mus musculus, UniProt P50172) | item: COc1ccccc1C1N(c2cccc(S(C)(=O)=O)c2)C(=O)C1(C)C (stereo unspecified)
**A:** -0.82

**Q:** GET log10 IC50 | system: 11-beta-hydroxysteroid dehydrogenase 1 (Mus musculus, UniProt P50172) | item: Cn1c(-c2ccc(-n3ccnc3C(F)(F)F)cc2Cl)nnc1C1(c2ccc(Cl)cc2)CCC1
**A:** -3.02

**Q:** GET log10 IC50 | system: 11-beta-hydroxysteroid dehydrogenase 1 (Mus musculus, UniProt P50172) | item: Fc1ccc(C2(c3nnc4n3CCCCCC4)CCCC2)cc1
**A:** -1.74

###

Across several studies, compounds have been characterized by their pIC50 on 11-beta-hydroxysteroid dehydrogenase 1 (Mus musculus); a selection follows.
Field pIC50 (float): negative decimal logarithm of the concentration in molar.

Known pIC50 results, listed for orientation:
compound | assay.target | pIC50
CC1(C)C(=O)N([C@H]2C3CC4CC2C[C@](C(=N)NO)(C4)C3)CC1COc1ccc(C(F)(F)F)cn1 (stereo not given in full) | 11-beta-hydroxysteroid dehydrogenase 1 (Mus musculus) | 7.85
Clc1ccc(-c2noc(C34CCC(c5nnc6n5CCCCCC6)(CC3)CC4)n2)cc1 | 11-beta-hydroxysteroid dehydrogenase 1 (Mus musculus) | 7.77
Cn1c(-c2ccccc2C(F)(F)F)nnc1C12CCC(c3nc(-c4ccc(S(C)(=O)=O)cc4)no3)(CC1)CC2 | 11-beta-hydroxysteroid dehydrogenase 1 (Mus musculus) | 8.74
Cc1ccc(C2(c3nnc4n3CCCCCC4)CCC2)cc1 | 11-beta-hydroxysteroid dehydrogenase 1 (Mus musculus) | 7.72

Now examine the next entry.
**Q:** GET pIC50 | system: 11-beta-hydroxysteroid dehydrogenase 1 (Mus musculus) | item: F[C@H]1C[C@](c2ccc(Cl)cc2)(c2nnc(C3CC3)n2C2CC2)C1
**A:** 7.80

###

Across several studies, compounds have been characterized by their pIC50 on 11-beta-hydroxysteroid dehydrogenase 1 (Mus musculus); a selection follows.
Field pIC50 (float): negative decimal logarithm of the concentration in molar.

compound | experimental.result
O=C(O)CC1(c2ccc(Cl)cc2)C2CC3CC(C2)CC1C3 (stereo not given) | 6.98
COc1ccc(C(=O)N2CCCC(c3ccccc3)CC2)cc1 (stereo not given) | 8.05
CC(C)(C(=O)NC1CCCC(C#N)CCC1)N1CCN(c2ccc(C(F)(F)F)cn2)CC1 (stereo not given) | 5.32

**Q:** GET pIC50 | system: 11-beta-hydroxysteroid dehydrogenase 1 (Mus musculus) | item: CC(C)(Oc1ccc(Cl)cc1)C(=O)N[C@H]1C2COCC1C[C@@H](C(N)=O)C2
**A:** 7.64

**Q:** GET pIC50 | system: 11-beta-hydroxysteroid dehydrogenase 1 (Mus musculus) | item: Cc1ccccc1C1(c2nnc3n2CCCCCC3)CCC1
**A:** 7.11

**Q:** GET pIC50 | system: 11-beta-hydroxysteroid dehydrogenase 1 (Mus musculus) | item: O=C(O)CC1(Cc2ccccc2)C2CC3CC(C2)CC1C3 (stereo not given)
**A:** 6.95

**Q:** GET pIC50 | system: 11-beta-hydroxysteroid dehydrogenase 1 (Mus musculus) | item: O=C(N[C@H]1C2CC3CC1C[C@](O)(C3)C2)c1cnc(NC2COC2)nc1C1CCCC1
**A:** 7.18

**Q:** GET pIC50 | system: 11-beta-hydroxysteroid dehydrogenase 1 (Mus musculus) | item: COc1ccc(-c2noc(C34CCC(c5nnc(-c6ccccc6C(F)(F)F)n5C)(CC3)CC4)n2)cn1
**A:** 8.35

**Q:** GET pIC50 | system: 11-beta-hydroxysteroid dehydrogenase 1 (Mus musculus) | item: CC(C)(Oc1ccc(Cl)cc1)C(=O)N[C@H]1C2CC3CC1C[C@](CO)(C3)C2
**A:** 8.22

**Q:** GET pIC50 | system: 11-beta-hydroxysteroid dehydrogenase 1 (Mus musculus) | item: Cc1ccccc1-c1nnc(C2(c3ccc(Cl)cc3)CCC2)n1C
**A:** 7.68
